Biological target: T1, huNav1.7α + β1-β2-β3 (human, UniProt Q15858 1-1988; A5A6L6 19-218; O60939 30-215; Q2KI11 23-215)
T1 construct: also called huNav1.7-beta1-beta2-beta3; huNav1.7-β1-β2-β3
Assay: binding FACS, CHO FlpIn
Kindly state Bmax for each of the entries shown.
Answers are plain numbers, in %.

Illustrative cases are given below, each with its answer.
| binder | units | Bmax |
| --- | --- | --- |
| F0103464B09 (parental)-FLAG-HIS6 (VHH, also called F010346B09) VHH: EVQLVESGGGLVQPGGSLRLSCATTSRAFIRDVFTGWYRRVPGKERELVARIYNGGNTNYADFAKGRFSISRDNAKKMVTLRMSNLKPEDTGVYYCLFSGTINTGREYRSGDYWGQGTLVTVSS | % | 99 |
| F010301933 (VHH, also called F0103464B09(L11V, S68T, K83R, V89L)) VHH: EVQLVESGGGVVQPGGSLRLSCATTSRAFIRDVFTGWYRRVPGKERELVARIYNGGNTNYADFAKGRFTISRDNAKKMVTLRMSNLRPEDTGLYYCLFSGTINTGREYRSGDYWGQGTLVTVSS | % | 94 |
| F010301939 (VHH, also called F0103464B09(L11V, K83R, G88A, V89L)) VHH: EVQLVESGGGVVQPGGSLRLSCATTSRAFIRDVFTGWYRRVPGKERELVARIYNGGNTNYADFAKGRFSISRDNAKKMVTLRMSNLRPEDTALYYCLFSGTINTGREYRSGDYWGQGTLVTVSS | % | 96 |

Kindly review the next binder as well.
*Q* Which Bmax is reported for this binder? F010301935 (VHH, also called F0103464B09(L11V, T79Y, K83R, V89L)) VHH: EVQLVESGGGVVQPGGSLRLSCATTSRAFIRDVFTGWYRRVPGKERELVARIYNGGNTNYADFAKGRFSISRDNAKKMVYLRMSNLRPEDTGLYYCLFSGTINTGREYRSGDYWGQGTLVTVSS
*A* 94
